Biological target: mTOR (Homo sapiens, UniProt P42345)
Construct: endogenous in cells; host or cells: Jurkat cells (ATCC TIB-152, clone E6-1), lysate
Experiment: mTOR kinobeads assay (dot blot detection)
Assay type: binding
Details: Table 4, read-out: Inhibition values (IC50) mTOR
Each entry below carries its reported IC50.

- smiles notation: "C[C@H]1COCCN1c1nc(-c2ccc(NC(=O)NC3CC3)cc2)cc(-c2cccnc2S(C)(=O)=O)n1"
  subject of test: "mTOR (Homo sapiens, UniProt P42345)"
  IC50: "0.1 to 1 µM"
- smiles notation: "C[C@H]1COCCN1c1cc(-c2cccc(S(C)(=O)=O)c2)nc(-c2ccc(NC(=O)NC3CC3)cc2)n1"
  subject of test: "mTOR (Homo sapiens, UniProt P42345)"
  IC50: "1 to 10 µM"
- smiles notation: "C[C@H]1COCCN1c1cc(-c2cncc(F)c2)nc(-c2ccc(NC(=O)NC3CC3)cc2F)n1"
  subject of test: "mTOR (Homo sapiens, UniProt P42345)"
  IC50: "1 to 10 µM"
- smiles notation: "O=C(Nc1ccc(-c2ccnc(N3CC4CCC(C3)O4)n2)cc1)NC1CC1"
  subject of test: "mTOR (Homo sapiens, UniProt P42345)"
  IC50: "1 to 10 µM"

Specify IC50 for C[C@H]1COCCN1c1cc(-c2cccnc2)nc(-c2ccc(NC(=O)NC3CC3)cc2)n1 and stop.
0.1 to 1 µM

Specify IC50 for CCNC(=O)Nc1ccc(-c2cc(-c3ccccc3NS(C)(=O)=O)nc(N3CCOC[C@@H]3C)n2)cc1 and stop.
1 to 10 µM

Specify IC50 for CS(=O)(=O)c1ccc(F)cc1-c1cc(-c2ccc(NC(=O)NC3CC3)cc2)nc(N2CC3CCC(C2)O3)n1 and stop.
0.1 to 1 µM

====

Each entry below carries its reported IC50.
Biological target: kinases (kinome) (Homo sapiens, UniProt P10721)
Construct: determined in kinobeads assays with mass spectrometry detection of kinases as described previously; endogenous in cells; host or cells: cell lysate
Sequence (P10721 26-976): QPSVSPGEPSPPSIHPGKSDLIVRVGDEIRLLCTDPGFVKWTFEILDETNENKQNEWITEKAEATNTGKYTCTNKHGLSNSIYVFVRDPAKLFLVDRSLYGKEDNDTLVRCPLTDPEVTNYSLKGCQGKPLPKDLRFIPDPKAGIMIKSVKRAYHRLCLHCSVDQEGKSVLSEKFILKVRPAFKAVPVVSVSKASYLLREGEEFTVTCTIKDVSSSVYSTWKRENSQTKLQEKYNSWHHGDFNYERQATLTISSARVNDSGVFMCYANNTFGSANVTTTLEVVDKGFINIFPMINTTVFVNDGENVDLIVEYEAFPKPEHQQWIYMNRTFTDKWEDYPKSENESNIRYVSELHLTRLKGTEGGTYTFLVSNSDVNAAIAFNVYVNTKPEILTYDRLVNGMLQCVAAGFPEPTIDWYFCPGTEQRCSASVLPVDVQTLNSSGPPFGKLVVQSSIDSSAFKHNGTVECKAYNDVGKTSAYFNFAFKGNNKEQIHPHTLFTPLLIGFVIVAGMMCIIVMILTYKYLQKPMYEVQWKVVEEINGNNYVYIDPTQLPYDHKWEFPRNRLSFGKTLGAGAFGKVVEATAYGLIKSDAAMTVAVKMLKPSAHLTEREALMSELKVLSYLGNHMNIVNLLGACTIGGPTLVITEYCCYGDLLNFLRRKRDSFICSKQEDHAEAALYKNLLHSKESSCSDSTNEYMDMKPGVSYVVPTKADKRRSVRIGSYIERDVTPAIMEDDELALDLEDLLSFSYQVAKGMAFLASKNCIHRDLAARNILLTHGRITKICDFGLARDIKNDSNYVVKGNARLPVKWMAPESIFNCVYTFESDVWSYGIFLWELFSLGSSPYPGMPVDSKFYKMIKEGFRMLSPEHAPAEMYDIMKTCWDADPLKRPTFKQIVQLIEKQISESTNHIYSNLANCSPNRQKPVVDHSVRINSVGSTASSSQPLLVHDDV
Assay: kinobeads assay with mass spectrometry detection of kinases (kinase selectivity profile)
Format: binding
Conditions: KIT (TK), IPI00022296

- smiles notation: "C[C@H]1COCCN1c1cc(-c2ccccn2)nc(-c2ccc(NC(=O)NCCO)cc2)n1"
  IC50: "> 10 µM"
- smiles notation: "C[C@H]1COCCN1c1nc(-c2ccc(NC(=O)NC3CC3)cc2)cc(-c2cccnc2S(C)(=O)=O)n1"
  IC50: "> 10 µM"

Here is another molecule to look at.
Specify IC50 for C[C@H]1COCCN1c1nc(-c2ccc(NC(=O)NC3CC3)cc2)cc(-c2cc(F)ccc2S(C)(=O)=O)n1 and stop.
> 10 µM

====

Each entry below carries its reported pIC50.
Target: kinases (kinome) (Homo sapiens)
Construct: determined in kinobeads assays with mass spectrometry detection of kinases as described previously; endogenous in cells
Sequence (Q99759 1-626): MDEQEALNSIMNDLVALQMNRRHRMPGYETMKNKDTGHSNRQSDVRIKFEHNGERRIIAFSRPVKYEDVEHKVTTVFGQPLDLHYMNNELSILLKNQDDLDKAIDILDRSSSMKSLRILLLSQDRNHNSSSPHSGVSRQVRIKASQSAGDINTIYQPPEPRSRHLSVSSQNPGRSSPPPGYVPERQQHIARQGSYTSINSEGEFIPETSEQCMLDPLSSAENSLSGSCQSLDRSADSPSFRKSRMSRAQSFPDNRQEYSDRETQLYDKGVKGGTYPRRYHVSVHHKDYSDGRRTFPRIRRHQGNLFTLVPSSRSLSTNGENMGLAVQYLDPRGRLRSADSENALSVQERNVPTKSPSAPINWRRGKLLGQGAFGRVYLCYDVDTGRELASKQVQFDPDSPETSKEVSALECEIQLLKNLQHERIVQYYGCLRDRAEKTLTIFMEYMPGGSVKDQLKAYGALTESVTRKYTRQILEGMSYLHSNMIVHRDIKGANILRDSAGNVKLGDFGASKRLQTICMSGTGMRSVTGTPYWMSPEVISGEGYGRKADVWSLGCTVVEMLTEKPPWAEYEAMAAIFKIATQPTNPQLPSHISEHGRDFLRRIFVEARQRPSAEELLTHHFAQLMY
Assay: kinobeads assay with mass spectrometry detection of kinases (kinase selectivity profile)
Conditions: MAP3K3 (STE), IPI00181703
pIC50: −log10 of the molar value.

- smiles notation: "C[C@H]1COCCN1c1nc(-c2ccc(NC(=O)NC3CC3)cc2)cc(-c2cc(F)ccc2S(C)(=O)=O)n1"
  measure: "pIC50"
  observed: "< 5.00"

Specify pIC50 for C[C@H]1COCCN1c1nc(-c2ccc(NC(=O)N[C@H]3CCC[C@@H]3O)cc2)cc(-c2cc(F)ccc2S(C)(=O)=O)n1 and stop.
< 5.00

====

Target: kinases (kinome) (Homo sapiens, UniProt P42345)
Construct: determined in kinobeads assays with mass spectrometry detection of kinases as described previously; endogenous in cells
Assay: kinobeads assay with mass spectrometry detection of kinases (kinase selectivity profile)
Settings: mTOR (Atypical), IPI00031410; 0.1 μM ranges
pIC50: −log10 of the molar value.
Each entry below carries its reported pIC50.

As a guide, the following entries are already answered.
- smiles notation: "CCNC(=O)Nc1ccc(-c2cc(-c3ccccc3C#N)nc(N3CCOC[C@@H]3C)n2)cc1"
  subject of test: "kinases (kinome) (Homo sapiens, UniProt P42345)"
  pIC50: "6.70 to 7.00"
- smiles notation: "C[C@H]1COCCN1c1cc(-c2ccccn2)nc(-c2ccc(NC(=O)NCCO)cc2)n1"
  subject of test: "kinases (kinome) (Homo sapiens, UniProt P42345)"
  pIC50: "6.70 to 7.00"
- smiles notation: "C[C@H]1COCCN1c1nc(-c2ccc(NC(=O)N[C@H]3CCC[C@@H]3O)cc2)cc(-c2cc(F)ccc2S(C)(=O)=O)n1"
  subject of test: "kinases (kinome) (Homo sapiens, UniProt P42345)"
  pIC50: "6.70 to 7.00"
- smiles notation: "C[C@H]1COCCN1c1nc(-c2ccc(NC(=O)NC3CC3)cc2)cc(-c2cccnc2S(C)(=O)=O)n1"
  subject of test: "kinases (kinome) (Homo sapiens, UniProt P42345)"
  pIC50: "6.52 to 6.70"
- smiles notation: "C[C@H]1COCCN1c1nc(-c2ccc(NC(=O)NC3CC3)cc2)cc(-c2cc(F)ccc2S(C)(=O)=O)n1"
  subject of test: "kinases (kinome) (Homo sapiens, UniProt P42345)"
  pIC50: "6.70 to 7.00"

Specify pIC50 for C[C@H]1COCCN1c1cc(-c2ccccc2S(C)(=O)=O)nc(-c2ccc(NC(=O)NC3CC3)cc2)n1 and stop.
6.70 to 7.00

Specify pIC50 for C[C@H]1COCCN1c1nc(-c2ccc(NC(=O)NC3CC3)cc2)cc(-c2ccccc2S(C)(=O)=O)n1 and stop.
6.40 to 6.52

====

Molecular target: mTOR (Homo sapiens)
Construct: endogenous in cells; host or cells: Jurkat cells (ATCC TIB-152, clone E6-1), lysate
Assay: mTOR kinobeads assay (dot blot detection)
Type: binding
Settings: Table 2, Jurkat cell lysate, read-out: Inhibition values (IC50) mTor
measure: IC50

- smiles notation: "C[C@H]1COCCN1c1nccc(-c2ccc(NC(=O)NC3CC3)cc2)n1"
  measure: "IC50"
  observed: "1000 to 10000 nM"
- smiles notation: "C[C@H]1COCCN1c1nc(-c2ccc(NC(=O)NC3CC3)cc2)cc(-c2ccccc2S(C)(=O)=O)n1"
  measure: "IC50"
  observed: "100 to 1000 nM"
- smiles notation: "C[C@H]1COCCN1c1nc(-c2ccc(NC(=O)NC3CC3)cc2)cc(-c2cccnc2S(C)(=O)=O)n1"
  measure: "IC50"
  observed: "100 to 1000 nM"
- smiles notation: "CCNC(=O)Nc1ccc(-c2cc(-c3ccccc3C#N)nc(N3CCOC[C@@H]3C)n2)cc1"
  measure: "IC50"
  observed: "1000 to 10000 nM"
- smiles notation: "CNC(=O)Nc1ccc(-c2nccc(N3CCOC[C@@H]3C)n2)cc1"
  measure: "IC50"
  observed: "1000 to 10000 nM"
- smiles notation: "CCNC(=O)Nc1ccc(-c2cc(-c3ccccc3S(C)(=O)=O)nc(N3CCOCC3)n2)cc1"
  measure: "IC50"
  observed: "1000 to 10000 nM"
- smiles notation: "O=C(Nc1ccc(-c2ccnc(N3CC4CCC(C3)O4)n2)cc1)NC1CC1"
  measure: "IC50"
  observed: "1000 to 10000 nM"
- smiles notation: "C[C@H]1COCCN1c1cc(-c2cncc(F)c2)nc(-c2ccc(NC(=O)NC3CC3)cc2)n1"
  measure: "IC50"
  observed: "100 to 1000 nM"
- smiles notation: "CCNC(=O)Nc1ccc(-c2ccnc(N3CC4CCC(C3)O4)n2)cc1"
  measure: "IC50"
  observed: "1000 to 10000 nM"
- smiles notation: "C[C@H]1COCCN1c1nc(-c2ccc(NC(=O)NC(C)(C)CO)cc2)cc(-c2cc(F)ccc2S(C)(=O)=O)n1"
  measure: "IC50"
  observed: "1000 to 10000 nM"

Specify IC50 for C[C@H]1COCCN1c1nc(-c2ccc(NC(=O)NCCO)cc2)cc(-c2cc(F)ccc2S(C)(=O)=O)n1 and stop.
< 100 nM

Specify IC50 for C[C@H]1COCCN1c1nc(-c2ccc(NC(=O)NC3CC3)cc2)cc(-c2cccnc2)n1 and stop.
1000 to 10000 nM

Specify IC50 for CCNC(=O)Nc1ccc(-c2cc(-c3ccccc3C(=O)O)nc(N3CCOC[C@@H]3C)n2)cc1 and stop.
1000 to 10000 nM

Specify IC50 for C[C@H]1COCCN1c1nccc(-c2ccc(NC(=O)NCCO)cc2)n1 and stop.
1000 to 10000 nM
